system_tested: UniProtKB P11150
Sequence (P11150 whole entry): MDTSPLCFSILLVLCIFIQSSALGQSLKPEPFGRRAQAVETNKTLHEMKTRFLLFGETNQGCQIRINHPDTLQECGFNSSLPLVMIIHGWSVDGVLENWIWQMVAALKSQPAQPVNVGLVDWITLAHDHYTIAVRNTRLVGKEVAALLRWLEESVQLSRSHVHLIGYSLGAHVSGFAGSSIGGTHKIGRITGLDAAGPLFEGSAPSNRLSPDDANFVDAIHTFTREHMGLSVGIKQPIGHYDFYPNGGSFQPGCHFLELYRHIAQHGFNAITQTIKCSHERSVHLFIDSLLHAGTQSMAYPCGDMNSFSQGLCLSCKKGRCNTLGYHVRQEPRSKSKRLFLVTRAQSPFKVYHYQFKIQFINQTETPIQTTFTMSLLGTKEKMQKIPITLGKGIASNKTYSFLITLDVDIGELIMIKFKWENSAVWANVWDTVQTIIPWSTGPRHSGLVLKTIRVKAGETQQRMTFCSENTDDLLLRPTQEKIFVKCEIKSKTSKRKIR
assay_notes: Inhibition of human HL expressed in HEK293 cells using PED-A1 as substrate by spectrophotometry

{"compound": "O=C(NCCCCCCc1ccccc1)SCc1ccccc1F", "system_tested": "UniProtKB P11150", "units_label": "nM", "IC50": 1360}

* * *

system_tested: Lipoprotein lipase (Homo sapiens, UniProt P06858)
Sequence (P06858 whole entry): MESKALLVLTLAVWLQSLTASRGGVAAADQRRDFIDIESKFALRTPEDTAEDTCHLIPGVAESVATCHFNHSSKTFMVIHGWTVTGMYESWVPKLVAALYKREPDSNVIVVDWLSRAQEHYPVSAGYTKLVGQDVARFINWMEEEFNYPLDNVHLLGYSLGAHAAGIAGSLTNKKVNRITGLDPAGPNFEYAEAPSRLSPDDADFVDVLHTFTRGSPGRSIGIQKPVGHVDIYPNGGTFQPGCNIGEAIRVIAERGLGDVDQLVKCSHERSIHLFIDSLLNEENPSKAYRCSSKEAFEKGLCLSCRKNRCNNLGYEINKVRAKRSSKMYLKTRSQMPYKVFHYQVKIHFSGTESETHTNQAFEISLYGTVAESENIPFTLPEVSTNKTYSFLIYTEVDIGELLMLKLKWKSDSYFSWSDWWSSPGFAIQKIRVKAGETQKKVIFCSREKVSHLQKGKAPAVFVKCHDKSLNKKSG
assay_notes: Inhibition of human LPL expressed in HEK293 cells using PED-A1 as substrate by spectrophotometry
pIC50: −log10 of the molar value.

{"compound": "O=C(NCCCCCCc1ccccc1)SCc1ccccc1F", "pIC50": 5.77}

* * *

system_tested: Endothelial lipase (Homo sapiens)
Sequence (Q9Y5X9 whole entry): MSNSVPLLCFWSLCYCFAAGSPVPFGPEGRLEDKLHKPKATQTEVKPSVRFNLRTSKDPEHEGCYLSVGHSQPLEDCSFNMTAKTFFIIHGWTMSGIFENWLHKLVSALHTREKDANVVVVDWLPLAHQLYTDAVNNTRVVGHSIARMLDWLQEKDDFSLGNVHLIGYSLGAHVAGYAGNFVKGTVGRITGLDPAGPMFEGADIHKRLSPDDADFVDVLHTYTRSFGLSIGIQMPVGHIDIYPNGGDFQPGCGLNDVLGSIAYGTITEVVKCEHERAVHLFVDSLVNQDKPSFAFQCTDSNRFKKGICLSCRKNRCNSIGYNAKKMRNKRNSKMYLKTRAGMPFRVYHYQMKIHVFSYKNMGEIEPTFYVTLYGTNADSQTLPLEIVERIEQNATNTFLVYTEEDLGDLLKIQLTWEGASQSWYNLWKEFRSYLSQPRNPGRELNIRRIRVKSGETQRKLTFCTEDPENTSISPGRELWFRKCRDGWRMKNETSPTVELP
assay_notes: Time dependent inhibition of human EL (19 to 500) expressed in HEK293 cells using PED-A1 as substrate by spectrophotometry
property: IC50

{"compound": "O=C(NCCCCCOc1cc(F)cc(F)c1)SCc1nnc(-c2ccccc2)o1", "property": "IC50", "observed_result": "23 nM"}

src = ChEMBL document CHEMBL2380223
